Target: IRAK4 (Homo sapiens, UniProt Q9NWZ3)
Construct: Degradation of IRAK4 in OCI-LY10 was quantitatively measured using Meso Scale Discovery technology; endogenous in cells; host or cells: OCI-LY10
Sequence (Q9NWZ3 whole entry): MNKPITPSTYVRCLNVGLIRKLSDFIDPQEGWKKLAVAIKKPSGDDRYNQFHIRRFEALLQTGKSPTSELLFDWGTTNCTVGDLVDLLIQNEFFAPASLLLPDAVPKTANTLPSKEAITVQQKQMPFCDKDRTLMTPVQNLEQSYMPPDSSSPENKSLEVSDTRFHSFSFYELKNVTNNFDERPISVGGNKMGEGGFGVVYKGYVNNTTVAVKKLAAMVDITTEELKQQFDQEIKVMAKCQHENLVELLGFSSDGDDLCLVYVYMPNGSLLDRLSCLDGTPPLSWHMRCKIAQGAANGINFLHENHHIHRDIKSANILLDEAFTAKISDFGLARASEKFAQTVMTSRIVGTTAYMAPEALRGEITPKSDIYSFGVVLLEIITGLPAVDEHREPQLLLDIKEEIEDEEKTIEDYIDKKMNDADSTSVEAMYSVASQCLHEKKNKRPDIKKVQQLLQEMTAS
Experiment: IRAK4 MSD Degradation in OCI-LY10
Assay type: cell-based
Conditions: OCI-LY10 cells, 24 hrs incubation, MSD; read-out: IRAK4 degradation in OCI-LY10 at 24 hrs: DC50
Experimental: Degradation of IRAK4 in OCI-LY10 was quantitatively measured using Meso Scale Discovery technology. […] Compounds were then added to the assay plates with a final top concentration of 1 to 10 μM in a 1:3 dilution series with total of 8 doses. […] The assay plates were then incubated at room temperature for 1 hour, washed 3 times with 150 μL/well TBST buffer, and 150 μL/well MSD reading buffer (Meso Scale Discovery catalog number R92TC-2) was added. […]
Give measured DC50 for each item. Keep answers brief.

>>> reported("Cn1c(=O)n(C2CCC(=O)NC2=O)c2cccc(C#CCN3CCN(Cc4ccc(-n5cc(NC(=O)c6cnn7ccc(N8C[C@H]9C[C@@H]8CO9)nc67)c(C(F)F)n5)cc4)CC3)c21 (some centres unmarked) [I-369]")
"> 200 nM"
>>> reported("Cn1c(NC(=O)c2cccc(C(F)(F)F)n2)cc2cn([C@H]3CC[C@H](CN4CCC(c5cccc6c5n(C)c(=O)n6C5CCC(=O)NC5=O)C(F)(F)C4)CC3)nc2c1=O (some centres unmarked) [I-771]")
"> 200 nM"
>>> reported("Cn1c(=O)n(C2CCC(=O)NC2=O)c2cccc([C@@H]3CCN(C[C@H]4CC[C@H](n5cc6cc(NC(=O)c7cccc(C#N)n7)c(C(C)(C)O)cc6n5)CC4)C[C@H]3F)c21 (some centres unmarked) [I-649]")
"< 10 nM"
>>> reported("COc1cc2nn([C@H]3CC[C@H](CN4CCC5(CC4)CCN(c4cccc6c(C7CCC(=O)NC7=O)cncc46)CC5)CC3)cc2cc1NC(=O)c1cncc(C#N)c1 (some centres unmarked) [I-253]")
"> 200 nM"

// next item, DC50 requested
Identify the reported DC50 for the following entry. COc1cc2nn([C@H]3CC[C@H](CN4CCC5(CC4)CCN(c4cccc6c(C7CCC(=O)NC7=O)cccc46)CC5)CC3)cc2cc1NC(=O)c1cncc(C#N)c1 (some centres unmarked) [I-252]
10 to 100 nM

---

Target: IRAK4 (Homo sapiens)
Construct: Degradation of IRAK4 in OCI-LY10 was quantitatively measured using Meso Scale Discovery technology; endogenous in cells; host or cells: OCI-LY10
Experiment: IRAK4 MSD Degradation in OCI-LY10
Assay type: cell-based
Conditions: OCI-LY10 cells, 4 hrs incubation, MSD; read-out: IRAK4 degradation in OCI-LY10 at 4 hrs: DC50
Give measured DC50 for each item. Keep answers brief.

// worked examples, DC50 included
>>> reported("Cn1c(=O)n(C2CCC(=O)NC2=O)c2cccc(N3CC(F)(CN(C)[C@H]4CC[C@H](n5cc6cc(NC(=O)c7cccc(C(F)(F)F)n7)ccc6n5)CC4)C3)c21 (some centres unmarked)")
"> 200 nM"
>>> reported("CO[C@H]1CN(c2cccc3c2n(C)c(=O)n3C2CCC(=O)NC2=O)C[C@@H]1N(C)C[C@H]1CC[C@H](n2cc3cc(NC(=O)c4cccc(C(F)(F)F)n4)ccc3n2)CC1 (some centres unmarked)")
"> 200 nM"
>>> reported("Cn1c(=O)n(C2CCC(=O)NC2=O)c2cccc(C#CCOC3CCN(Cc4ccc(-n5cc(NC(=O)c6cnn7ccc(N8C[C@H]9C[C@@H]8CO9)nc67)c(C(F)F)n5)cc4)CC3)c21 (some centres unmarked)")
"10 to 100 nM"
>>> reported("Cn1c(=O)n(C2CCC(=O)NC2=O)c2cccc(OC3CCN([C@H]4CC[C@H](n5cc6cc(NC(=O)c7cccc(C(F)(F)F)n7)ccc6n5)CC4)CC3)c21 (some centres unmarked)")
"> 200 nM"
>>> reported("Cn1c(=O)n(C2CCC(=O)NC2=O)c2cccc(C#CCN3CCC(C[C@H]4CC[C@H](n5cc(NC(=O)c6cnn7ccc(N8C[C@H]9C[C@@H]8CO9)nc67)c(C(F)F)n5)CC4)C(F)(F)C3)c21 (some centres unmarked)")
"> 200 nM"
>>> reported("Cc1ccc(-c2nn([C@H]3CC[C@H](CN(C)C4CCN(c5cccc6c5n(C)c(=O)n6C5CCC(=O)NC5=O)CC4)CC3)cc2NC(=O)c2cnn3cccnc23)c(F)c1 (some centres unmarked)")
"> 200 nM"

# map each compound to its DC50
1. Cn1c(=O)n(C2CCC(=O)NC2=O)c2cccc(C3CCN(C[C@H]4CC[C@H](n5cc6cc(NC(=O)c7cccc(C(F)(F)F)n7)c(F)cc6n5)CC4)CC3(F)F)c21 (some centres unmarked)
2. CN1CCN(c2ccn3ncc(C(=O)Nc4cn([C@H]5CC[C@H](CN6CCC(OCC#Cc7cccc8c7n(C)c(=O)n8C7CCC(=O)NC7=O)CC6)CC5)nc4C(F)F)c3n2)CC1 (some centres unmarked)
3. Cn1c(=O)n(C2CCC(=O)NC2=O)c2cccc(C#CCOC3CCN(C[C@H]4CC[C@H](n5cc(NC(=O)c6cnn7ccc(N8CCC9(COC9)C8)nc67)c(C(F)F)n5)CC4)CC3)c21 (some centres unmarked)

> 200 nM
> 200 nM
> 200 nM

# map each compound to its DC50
1. CN(C)c1cnc2c(C(=O)Nc3cn([C@H]4CC[C@H](CN5CCN(c6cccc7c6n(C)c(=O)n7C6CCC(=O)NC6=O)CC5)CC4)nc3F)cnn2c1 (some centres unmarked)
2. CCn1c(=O)n(C2CCC(=O)NC2=O)c2cccc(C#CCN3CCN(C[C@H]4CC[C@H](n5cc(NC(=O)c6cnn7ccc(N8C[C@H]9C[C@@H]8CO9)nc67)c(C(F)F)n5)CC4)CC3)c21 (some centres unmarked)

1. > 200 nM
2. < 10 nM
